experiment: Metabolic stability in human liver microsomes; settings: human, human liver microsomes, pH 7.4
Kindly supply the reported log10(microsomal CLint at 1 µM) values for the records listed here.
All values: base-10 log of microsomal CLint at 1 µM in µL/min/mg.

Entry under review: COc1cnc(-n2cnc(C)n2)c2[nH]cc(C(=O)C(=O)N3CC4CN(C(=O)c5ccccc5)CC4C3)c12 (stereo not drawn) . Reported log10(microsomal CLint at 1 µM)?
2.16

Query COc1cnc(-n2cnc(C)n2)c2[nH]cc(C(=O)C(=O)N3CC(C)N(C(=O)c4ccccc4)C(C)C3)c12 (stereo not drawn) next
1.65

Query COc1cnc(-n2cnc(C)n2)c2[nH]cc(C(=O)C(=O)NC3C4CN(C(=O)c5ccccc5)CC43)c12 (stereo not drawn) next
0.98

Query "COc1cnc(-n2cnc(C)n2)c2[nH]cc(C(=O)C(=O)N3CC(CCC(=O)c4ccccc4)C3)c12" next
2.02

Query "COc1cnc(-n2cnc(C)n2)c2[nH]cc(C(=O)C(=O)N3C[C@@H]4[C@H](C3)[C@H]4NC(=O)c3ccccc3)c12" next
1.18

Query "COc1cnc(-n2cnc(C)n2)c2[nH]cc(C(=O)C(=O)N3Cc4cnn(-c5ccccc5)c4C3)c12" next
2.33

====

Kindly supply the reported half-life at 1 µM values for the records listed here.
experiment: Metabolic stability in human liver microsomes; details: human, human liver microsomes, pH 7.4
Express it in min; write the number only.

Entry under review: "COc1cnc(-n2cnc(C)n2)c2[nH]cc(C(=O)C(=O)N3Cc4cnn(-c5ccccc5)c4C3)c12" . Reported half-life at 1 µM?
6.55

Query "COc1cnc(-n2cnc(C)n2)c2[nH]cc(C(=O)C(=O)N3C[C@@H]4[C@H](C3)[C@H]4NC(=O)c3ccccc3)c12" next
91.2

Query COc1cnc(-n2cnc(C)n2)c2[nH]cc(C(=O)C(=O)NC3C4CN(C(=O)c5ccccc5)CC43)c12 (stereo not drawn) next
145

Query COc1cnc(-n2cnc(C)n2)c2[nH]cc(C(=O)C(=O)N3CC(C)N(C(=O)c4ccccc4)C(C)C3)c12 (stereo not drawn) next
31.2

Query COc1cnc(-n2cnc(C)n2)c2[nH]cc(C(=O)C(=O)N3CC4CN(C(=O)c5ccccc5)CC4C3)c12 (stereo not drawn) next
9.6

Query "COc1cnc(-n2cnc(C)n2)c2[nH]cc(C(=O)C(=O)N3CC(CCC(=O)c4ccccc4)C3)c12" next
13.2

====

experiment: Cellular toxicity (CCK-8 cell viability); details: human, U87.CD4.CCR5 cells
Kindly supply the reported CC50 at 48 h values for the records listed here.

Entry under review: COc1cnc(-n2cnc(C)n2)c2[nH]cc(C(=O)C(=O)NC3C4CN(C(=O)c5ccccc5)CC43)c12 (centres unmarked) [SC28] . Reported CC50 at 48 h?
> 400 µM

Query COc1cnc(-n2cnc(C)n2)c2[nH]cc(C(=O)C(=O)N3C[C@@H]4[C@H](C3)[C@H]4NC(=O)c3ccccc3)c12 [SC46] next
> 1000 µM

====

assay: Metabolic stability in human liver microsomes; conditions: extrapolated for a human with scaling factors
Kindly supply the reported Clapp values for the records listed here.
Express it in mL/min/kg; write the number only.

Entry under review: COc1cnc(-n2cnc(C)n2)c2[nH]cc(C(=O)C(=O)N3CC4CN(C(=O)c5ccccc5)CC4C3)c12 (stereo not shown) . Reported Clapp?
139.887

Query "COc1cnc(-n2cnc(C)n2)c2[nH]cc(C(=O)C(=O)N3C[C@@H]4[C@H](C3)[C@H]4NC(=O)c3ccccc3)c12" next
14.657

Query "COc1cnc(-n2cnc(C)n2)c2[nH]cc(C(=O)C(=O)N3Cc4cnn(-c5ccccc5)c4C3)c12" next
204.1

Query C[C@]12CC[C@H]3[C@@H](CCC4=CC(=O)CC[C@@]43C)[C@@H]1CC[C@@H]2O [Testosterone, reference compound] next
99.005

Query COc1cnc(-n2cnc(C)n2)c2[nH]cc(C(=O)C(=O)NC3C4CN(C(=O)c5ccccc5)CC43)c12 (stereo not shown) next
9.245

Query "COc1cnc(-n2cnc(C)n2)c2[nH]cc(C(=O)C(=O)N3CC(CCC(=O)c4ccccc4)C3)c12" next
101.588

Query COc1cnc(-n2cnc(C)n2)c2[nH]cc(C(=O)C(=O)N3CC(C)N(C(=O)c4ccccc4)C(C)C3)c12 (stereo not shown) next
42.88

====

Kindly supply the reported k (rate of metabolism) values for the records listed here.
experiment: Metabolic stability in human liver microsomes; details: 1.0 µM compound, 0.5 mg/mL HLM, NADPH, 37 °C
The answer should be a number; do not append a unit.

Entry under review: COc1cnc(-n2cnc(C)n2)c2[nH]cc(C(=O)C(=O)N3C[C@@H]4[C@H](C3)[C@H]4NC(=O)c3ccccc3)c12 [SC46] . Reported k (rate of metabolism)?
0.0076

Query COc1cnc(-n2cnc(C)n2)c2[nH]cc(C(=O)C(=O)N3CC(C)N(C(=O)c4ccccc4)C(C)C3)c12 (stereo not shown) [SC54] next
0.02223

Query COc1cnc(-n2cnc(C)n2)c2[nH]cc(C(=O)C(=O)NC3C4CN(C(=O)c5ccccc5)CC43)c12 (stereo not shown) [SC28] next
0.00479

Query C[C@]12CC[C@H]3[C@@H](CCC4=CC(=O)CC[C@@]43C)[C@@H]1CC[C@@H]2O [Testosterone, reference compound] next
0.05134

Query COc1cnc(-n2cnc(C)n2)c2[nH]cc(C(=O)C(=O)N3Cc4cnn(-c5ccccc5)c4C3)c12 [SC12] next
0.1058

Query COc1cnc(-n2cnc(C)n2)c2[nH]cc(C(=O)C(=O)N3CC4CN(C(=O)c5ccccc5)CC4C3)c12 (stereo not shown) [SC11] next
0.07253

Query COc1cnc(-n2cnc(C)n2)c2[nH]cc(C(=O)C(=O)N3CC(CCC(=O)c4ccccc4)C3)c12 [SC15] next
0.05268

====

experiment: Metabolic stability in human liver microsomes; settings: extrapolated, Q = 20 mL/min/kg
Each entry gets No if its Clh stays under 10 mL/min/kg, and Yes if its Clh is 10 mL/min/kg or above.

Kindly determine if Clh recorded for "COc1cnc(-n2cnc(C)n2)c2[nH]cc(C(=O)C(=O)N3CC(CCC(=O)c4ccccc4)C3)c12" is above or exactly 10 mL/min/kg.
Yes

Query C[C@]12CC[C@H]3[C@@H](CCC4=CC(=O)CC[C@@]43C)[C@@H]1CC[C@@H]2O [Testosterone, reference compound] next
Yes

Query "COc1cnc(-n2cnc(C)n2)c2[nH]cc(C(=O)C(=O)N3C[C@@H]4[C@H](C3)[C@H]4NC(=O)c3ccccc3)c12" next
No

Query COc1cnc(-n2cnc(C)n2)c2[nH]cc(C(=O)C(=O)N3CC4CN(C(=O)c5ccccc5)CC4C3)c12 (stereo not shown) next
Yes

Query COc1cnc(-n2cnc(C)n2)c2[nH]cc(C(=O)C(=O)N3CC(C)N(C(=O)c4ccccc4)C(C)C3)c12 (stereo not shown) next
Yes

Query COc1cnc(-n2cnc(C)n2)c2[nH]cc(C(=O)C(=O)NC3C4CN(C(=O)c5ccccc5)CC43)c12 (stereo not shown) next
No

Query "COc1cnc(-n2cnc(C)n2)c2[nH]cc(C(=O)C(=O)N3Cc4cnn(-c5ccccc5)c4C3)c12" next
Yes

====

test: Metabolic stability in human liver microsomes; conditions: (Clh/Q) × 100
Kindly supply the reported Eh (hepatic extraction ratio) values for the records listed here.
Express it in %; write the number only.

Entry under review: COc1cnc(-n2cnc(C)n2)c2[nH]cc(C(=O)C(=O)N3CC4CN(C(=O)c5ccccc5)CC4C3)c12 (stereo not drawn) [SC11] . Reported Eh (hepatic extraction ratio)?
87.49

Query COc1cnc(-n2cnc(C)n2)c2[nH]cc(C(=O)C(=O)NC3C4CN(C(=O)c5ccccc5)CC43)c12 (stereo not drawn) [SC28] next
31.61

Query COc1cnc(-n2cnc(C)n2)c2[nH]cc(C(=O)C(=O)N3CC(CCC(=O)c4ccccc4)C3)c12 [SC15] next
83.55

Query COc1cnc(-n2cnc(C)n2)c2[nH]cc(C(=O)C(=O)N3CC(C)N(C(=O)c4ccccc4)C(C)C3)c12 (stereo not drawn) [SC54] next
68.19

Query COc1cnc(-n2cnc(C)n2)c2[nH]cc(C(=O)C(=O)N3Cc4cnn(-c5ccccc5)c4C3)c12 [SC12] next
91.0753

Query COc1cnc(-n2cnc(C)n2)c2[nH]cc(C(=O)C(=O)N3C[C@@H]4[C@H](C3)[C@H]4NC(=O)c3ccccc3)c12 [SC46] next
42.28
